Attribution: PubChem BioAssay (NCI)

- Test system: HCT-15 colon
- PROTOCOL_SUMMARY: NCI tumour cell line growth inhibition, 48 h
MEASURED_ATTRIBUTE: TGI

CCOC(=O)/C(=C\c1ccc(N(C)C)cc1)S(=O)(=O)C(F)(F)C(F)(F)C(F)(F)C(F)(F)F :: > 100 µM
COC(=O)c1sc(C(=O)OC)c2c1CSC2 :: > 100 µM
ClC(Cl)(Cl)C1=N[C@H]2[C@H](Br)[C@@H]3O[C@@H](c4ccccc4)[C@H](c4ccccc4)O[C@@H]3[C@H]2O1 :: 67.3 µM
COc1cc2c3c(n(CCCNCCN)c(=O)c2cc1OC)-c1cc2c(cc1C3=O)OCO2 :: > 40.3 µM
c1ccc(C2=Nc3nc4ccccc4n3C(c3ccccc3)C2)cc1 (stereo not drawn) :: > 100 µM
Cn1c(C(C#N)c2nc(Cl)ncc2Br)nc2ccccc21 (stereo not drawn) :: > 100 µM
Cn1ncc2c(N)nc(N3CCCCC3)nc21 :: 82.5 µM
CCOc1cc2c(NCCCN(CCO)CCO)ncnc2c(OCC)c1OCC :: > 100 µM

---

Entries and their measured TGI follow.
- Tested on: KM12 colon
- PROTOCOL_SUMMARY: NCI tumour cell line growth inhibition, 48 h
MEASURED_ATTRIBUTE: TGI (µM)

CO/C1=C\C(C)=C\C(C)C(O)C(C)C/C(C)=C/C=C/C(OC)C(C(C)C(O)C(C)C2(O)CC(O)C(C)C(C(C)C)O2)OC1=O (centres undefined) :: 15
CC1=C[C@H]2c3c(c(O)c(O)c4oc5ccccc5c(=O)c34)[C@H](c3cc(O)c(O)c4oc5ccccc5c(=O)c34)[C@H]2C(C)(C)C1 :: 9.53

---

- Tested on: SF-539 CNS
Outcomes: y = active, n = inactive

COc1cc(/C=C\[N+](=O)[O-])ccc1OCc1ccccc1 :: n
N=C(N=C(N)N)N1CCN(c2ccncc2)CC1 :: n
Cc1cc(C)c(C[N+](C)(C)C)c(C)c1C :: y
O=c1nc(Nc2cccc(Cl)c2)oc2cc(Cl)oc(=O)c12 :: n
COc1ccc(-c2cc(/C=C3\C(=O)Nc4ccc(Cl)cc43)[nH]n2)cc1 :: n
COCCOC(=O)NC(=O)Nc1ccc(/C(=N/O)c2ccc(Cl)cc2)cc1 :: y
CC(=O)O[C@H]1CC[C@@]2(C)C(=CC[C@H]3[C@@H]4C/C(=C\c5cccc(OCCN6CCOCC6)c5)[C@H](OC(C)=O)[C@@]4(C)CC[C@@H]32)C1 :: n

---

- Tested on: UO-31 renal
Outcomes: active, inactive

O=C(NCCCNc1cc(-c2cn(-c3ccccc3)nc2-c2cccc(O)c2)ccn1)c1ccccc1 :: inactive
Cc1nc2ccc(Nc3nc(NCCN4CCOCC4)nc(Nc4ccc(F)cc4)n3)cc2n1Cc1ccccc1 :: inactive
C#CC1(O)C(COP(=O)(O)OC2CC(n3cc(F)c(=O)[nH]c3=O)OC2CO)OC(n2ccc(N)nc2=O)C1O (stereo not given) :: active
NNc1cccc(/C=C/c2ccccc2)cc1=O :: inactive
CC1(C)OC(=O)C=C([O-])O1.CC1(C)OC(=O)C=C([O-])O1.O=S(=O)([O-])c1ccc([O-])c2ncccc12.O=S(=O)([O-])c1ccc([O-])c2ncccc12.[Ti+4] :: inactive

---

- System: IGROV1 ovarian
- PROTOCOL_SUMMARY: NCI tumour cell line growth inhibition, 48 h
MEASURED_ATTRIBUTE: TGI

N=c1nnc(=O)c2c(s1)-n1ncc(C(=O)O)c1NN2 :: > 100 µM
CC12CCC(C(=O)O1)C(C)(C)O2 (stereo not drawn) :: > 100 µM
O=C(NCCCCCCNC(=O)n1cc(F)c(=O)[nH]c1=O)NCCCOCCOCCCNC(=O)C(O)C(O)C(O)C(O)CO (stereo not drawn) :: > 2.5 µM

---

Entries and their measured TGI follow.
- Test system: UACC-62 melanoma
- PROTOCOL_SUMMARY: NCI tumour cell line growth inhibition, 48 h
MEASURED_ATTRIBUTE: TGI

Cc1cc(-c2[nH]c(C(=O)O)cc2I)on1 :: > 100 µM
O=C1C[C@@H]2C(COC(=O)c3ccccc3)N(OCc3ccccc3)C[C@@H]2O1 (stereo not given in full) :: > 100 µM
CN(C)N1C(=O)c2ccccc2NC1c1ccccc1 (stereo not given) :: > 100 µM
O=C1CSc2nc3ccccc3n2/C=N\N1 :: > 100 µM
CC(=O)O[C@H]1CC[C@@]2(C)C(=CC[C@H]3[C@@H]4C/C(=C\c5cccc(OCCN6CCOCC6)c5)[C@H](OC(C)=O)[C@@]4(C)CC[C@@H]32)C1 :: 19.1 µM

---

- System: HL-60(TB) leukemia
- PROTOCOL_SUMMARY: NCI tumour cell line growth inhibition, 48 h
MEASURED_ATTRIBUTE: TGI (µM)

CCCCCC(=O)N[C@@H](c1ccccc1)C(O)C(=O)OC1C[C@@]2(O)C(OC(=O)c3ccccc3)C3[C@](C)(C(=O)[C@H](O)C(=C1C)C2(C)C)C(OC1OCC(O)C(O)C1O)C[C@H]1OC[C@@]31OC(C)=O (some centres undefined) :: 7.79
COc1ccc2[nH]c(Cl)c(/C=C3/C(=O)Nc4cc(C)c(OC)cc43)c2c1 :: 6.08
CN(C)CCCN1c2nc3ccccc3cc2Sc2cc3ccccc3nc21 :: 2.79
CCOC(=O)C(=Cc1ccccc1[N+](=O)[O-])C(=O)OCC :: 45.5

---

Entries and their measured TGI follow.
- System: HCC-2998 colon
- PROTOCOL_SUMMARY: NCI tumour cell line growth inhibition, 48 h
MEASURED_ATTRIBUTE: TGI (µM)

CC[C@@]1(O)C(=O)NCc2c1cc1n(c2=O)Cc2cc3c(N)cccc3nc2-1 :: 9.24
COc1ccc2[nH]c(Cl)c(/C=C3/C(=O)Nc4cc(C)c(OC)cc43)c2c1 :: 17.2

---

- Test system: U251 CNS
Outcomes: True for active, False for inactive

Cc1nc2sc(C(=O)Nc3cccc4ccccc34)c(N)c2cc1C(=O)c1ccccc1 :: False
Cc1cc(C)c(C[N+](C)(C)C)c(C)c1C :: True
CCCCCCCCCCN(CCCCCCCCCC)CC(=O)c1ccc2cc(Br)c3ccccc3c2c1 :: False

---

- System: RXF 393 renal
- PROTOCOL_SUMMARY: NCI tumour cell line growth inhibition, 48 h
Entries and their measured TGI follow.
MEASURED_ATTRIBUTE: TGI (µM)

Cc1cc(O)c2c(c1O)C(=O)C13C(=C2O)C(=O)C2C(O)C1C1C(O)C3C(=O)C3=C(O)c4c(O)cc(C)c(O)c4C(=O)C321 (centres undefined) :: 0.295
N#Cc1cnc2cc(OC[C@@H](O)CO)c(NC(=O)CC3CSSC3)cc2c1Nc1ccc(OCc2cccc(F)c2)c(Cl)c1 :: 1.44
COC1=C(N=[N+]=[N-])C(=O)c2ncccc2C1=O :: 11.9
CCCCCCCCCCN(CCCCCCCCCC)CC(=O)c1ccc2cc(Br)c3ccccc3c2c1 :: 3.5

---

// values below are GI50; system is HL-60(TB) leukemia
MEASURED_ATTRIBUTE: GI50

COc1ccccc1NC(=O)n1nc(N)c2ccccc21 :: 55 µM
CCOC(=O)C(=Cc1ccccc1[N+](=O)[O-])C(=O)OCC :: 3.3 µM
N#Cc1c(-c2ccccc2)cc(-c2ccc(Nc3nc(Nc4ccc(Cl)cc4)nc(Nc4ccc(Cl)cc4)n3)cc2)nc1N :: 1.71 µM
N=C(N=C(N)N)N1CCN(c2ccncc2)CC1 :: > 1000 µM
O=C(Nc1ccc(F)cc1)c1c(NC(=O)C(F)(F)F)sc2c1CCCCC2 :: 2.68 µM
O=C(Nc1ccc(Cl)cc1)c1ccc(NC2=C(Cl)C(=O)N(Cc3ccccc3)C2=O)cc1 :: 6.23 µM
COc1ccc(-c2cc(/C=C3\C(=O)Nc4ccc(Cl)cc43)[nH]n2)cc1 :: 3.04 µM
CCOC(=O)c1c(Br)c(-c2ccc(Br)cc2)c(Br)n1C :: 5.24 µM
O=S(=O)(NCC1CCC(CNc2ccc(Cl)cc2)CC1)c1ccc(-c2ccccc2)cc1 (centres undefined) :: > 50 µM

---

- Tested on: SK-OV-3 ovarian
- PROTOCOL_SUMMARY: NCI tumour cell line growth inhibition, 48 h
MEASURED_ATTRIBUTE: TGI

CCCCCCCC(=O)OC(CBr)COC(=O)C(C)(C)C (stereo unspecified) :: > 100 µM
COC(=O)/C=C(\C)C(=O)N(C)c1ccccc1I :: > 100 µM
CC(=O)O[C@H]1CC[C@@]2(C)C(=CC[C@H]3[C@@H]4C/C(=C\c5cccc(OCCN6CCOCC6)c5)[C@H](OC(C)=O)[C@@]4(C)CC[C@@H]32)C1 :: 34 µM
CC(=O)NCCC1CN(C(=O)/C=C\C#C[Si](C)(C)C)c2ccccc21 (stereo unspecified) :: > 100 µM
Cn1ncc2c(N)nc(N3CCCCC3)nc21 :: > 100 µM
OCC1OC(n2ccc3c(NO)ncnc32)C(O)C1O (stereo unspecified) :: 5.38 µM
CCOC(=O)c1sc2nc(SC)nc3c2c1NC(=O)CN3c1cccc(F)c1 :: 37.4 µM
O=C(NCCCCCCNC(=O)n1cc(F)c(=O)[nH]c1=O)NCCCOCCOCCCNC(=O)C(O)C(O)C(O)C(O)CO (stereo unspecified) :: > 2.5 µM
C#CC1(O)C(COP(=O)(O)OC2CC(n3cc(F)c(=O)[nH]c3=O)OC2CO)OC(n2ccc(N)nc2=O)C1O (stereo unspecified) :: > 100 µM
C=C1C[C@@H](O)C[C@@]2(C)C[C@@H]3OC(=O)C(=C)[C@@H]3C[C@H]12 :: > 81.9 µM
C/C(=N/NC(=S)Nc1ccccc1Cl)c1cccc(/C(C)=N\NC(=S)Nc2ccccc2Cl)n1 :: > 100 µM
COCC(=O)CP(=O)(OC)OC :: > 100 µM
CC12CCC(C(=O)O1)C(C)(C)O2 (stereo unspecified) :: > 100 µM
O=C1C[C@@H]2C(COC(=O)c3ccccc3)N(OCc3ccccc3)C[C@@H]2O1 (stereo partly specified) :: > 100 µM
NC(=O)N/N=C/C(/C=N/NC(N)=O)[N+](=O)[O-] :: > 100 µM
CCOC(=O)c1cc(C(=O)c2ccccc2)n2nc(-c3ccc(Cl)cc3)ccc12 :: 34.5 µM
Clc1nc(Cl)c(Cl)c(Cl)n1 :: 30.3 µM
COc1cc(/C=C\[N+](=O)[O-])ccc1OCc1ccccc1 :: 15.2 µM
CC/C=C\C[C@H](O)C/C=C1/C(=O)C=C[C@@H]1C/C=C\CCCC(=O)N(C)C :: 15.6 µM
C=CC1ON(Cc2ccccc2)CCc2cc(OC)c(OC)cc21 (stereo unspecified) :: > 100 µM
CC(=O)OCC1OC(n2cc(F)c(=O)[nH]c2=O)C(N)C(OC(C)=O)C1OC(C)=O (stereo unspecified) :: > 100 µM
CCCCCCCCCCCCCCCCSCC(COC)COP(=O)([O-])OCC[N+](C)(C)C (stereo unspecified) :: 28.6 µM
O=C(/C=C/c1cccc(Br)c1)c1cccs1 :: 46.8 µM
CC(=O)OC1CC2C(C)(C)C(=O)C=C[C@]2(C)C2CCC3(C)C(c4ccoc4)C(=O)[C@H]4O[C@]43[C@]12C (stereo partly specified) :: > 100 µM
Cc1ccc(S(=O)(=O)NC(=O)NC23CC4CC(CC(F)(C4)C2)C3)cc1 :: > 100 µM
Cc1ccsc1/C=N/Nc1cc(C)c2cccc(C)c2n1 :: > 100 µM
CN(C)c1nc(NC23CC4CC(CC(C4)C2)C3)nc(N(C)C)n1 :: > 100 µM
CCOc1cc2c(NCCCN(CCO)CCO)ncnc2c(OCC)c1OCC :: > 100 µM
O=[N+]([O-])/C(C(Cl)=C(Cl)Cl)=C1\NCCO1 :: > 100 µM
CN(C)N1C(=O)c2ccccc2NC1c1ccccc1 (stereo unspecified) :: > 100 µM
COC(=O)c1ccccc1C#CC#Cc1ccccc1C(=O)OC :: > 10 µM
COC1=C(N=[N+]=[N-])C(=O)c2ncccc2C1=O :: 28.5 µM
O=c1nc(Nc2cccc(Cl)c2)oc2cc(Cl)oc(=O)c12 :: 66.1 µM
COc1cc(OC)c2c(O)c3c(cc2c1)CC(C)(C)CC3=O :: > 100 µM
c1ccc(C2=Nc3nc4ccccc4n3C(c3ccccc3)C2)cc1 (stereo unspecified) :: > 100 µM
O=C1NC(N/N=C\C(O)C(O)C(O)CO)=N/C1=C/c1ccc(Cl)cc1 (stereo unspecified) :: > 100 µM
